Target: hNav1.7 (Homo sapiens (Human))
Sequence (Q15858 whole entry, looked up): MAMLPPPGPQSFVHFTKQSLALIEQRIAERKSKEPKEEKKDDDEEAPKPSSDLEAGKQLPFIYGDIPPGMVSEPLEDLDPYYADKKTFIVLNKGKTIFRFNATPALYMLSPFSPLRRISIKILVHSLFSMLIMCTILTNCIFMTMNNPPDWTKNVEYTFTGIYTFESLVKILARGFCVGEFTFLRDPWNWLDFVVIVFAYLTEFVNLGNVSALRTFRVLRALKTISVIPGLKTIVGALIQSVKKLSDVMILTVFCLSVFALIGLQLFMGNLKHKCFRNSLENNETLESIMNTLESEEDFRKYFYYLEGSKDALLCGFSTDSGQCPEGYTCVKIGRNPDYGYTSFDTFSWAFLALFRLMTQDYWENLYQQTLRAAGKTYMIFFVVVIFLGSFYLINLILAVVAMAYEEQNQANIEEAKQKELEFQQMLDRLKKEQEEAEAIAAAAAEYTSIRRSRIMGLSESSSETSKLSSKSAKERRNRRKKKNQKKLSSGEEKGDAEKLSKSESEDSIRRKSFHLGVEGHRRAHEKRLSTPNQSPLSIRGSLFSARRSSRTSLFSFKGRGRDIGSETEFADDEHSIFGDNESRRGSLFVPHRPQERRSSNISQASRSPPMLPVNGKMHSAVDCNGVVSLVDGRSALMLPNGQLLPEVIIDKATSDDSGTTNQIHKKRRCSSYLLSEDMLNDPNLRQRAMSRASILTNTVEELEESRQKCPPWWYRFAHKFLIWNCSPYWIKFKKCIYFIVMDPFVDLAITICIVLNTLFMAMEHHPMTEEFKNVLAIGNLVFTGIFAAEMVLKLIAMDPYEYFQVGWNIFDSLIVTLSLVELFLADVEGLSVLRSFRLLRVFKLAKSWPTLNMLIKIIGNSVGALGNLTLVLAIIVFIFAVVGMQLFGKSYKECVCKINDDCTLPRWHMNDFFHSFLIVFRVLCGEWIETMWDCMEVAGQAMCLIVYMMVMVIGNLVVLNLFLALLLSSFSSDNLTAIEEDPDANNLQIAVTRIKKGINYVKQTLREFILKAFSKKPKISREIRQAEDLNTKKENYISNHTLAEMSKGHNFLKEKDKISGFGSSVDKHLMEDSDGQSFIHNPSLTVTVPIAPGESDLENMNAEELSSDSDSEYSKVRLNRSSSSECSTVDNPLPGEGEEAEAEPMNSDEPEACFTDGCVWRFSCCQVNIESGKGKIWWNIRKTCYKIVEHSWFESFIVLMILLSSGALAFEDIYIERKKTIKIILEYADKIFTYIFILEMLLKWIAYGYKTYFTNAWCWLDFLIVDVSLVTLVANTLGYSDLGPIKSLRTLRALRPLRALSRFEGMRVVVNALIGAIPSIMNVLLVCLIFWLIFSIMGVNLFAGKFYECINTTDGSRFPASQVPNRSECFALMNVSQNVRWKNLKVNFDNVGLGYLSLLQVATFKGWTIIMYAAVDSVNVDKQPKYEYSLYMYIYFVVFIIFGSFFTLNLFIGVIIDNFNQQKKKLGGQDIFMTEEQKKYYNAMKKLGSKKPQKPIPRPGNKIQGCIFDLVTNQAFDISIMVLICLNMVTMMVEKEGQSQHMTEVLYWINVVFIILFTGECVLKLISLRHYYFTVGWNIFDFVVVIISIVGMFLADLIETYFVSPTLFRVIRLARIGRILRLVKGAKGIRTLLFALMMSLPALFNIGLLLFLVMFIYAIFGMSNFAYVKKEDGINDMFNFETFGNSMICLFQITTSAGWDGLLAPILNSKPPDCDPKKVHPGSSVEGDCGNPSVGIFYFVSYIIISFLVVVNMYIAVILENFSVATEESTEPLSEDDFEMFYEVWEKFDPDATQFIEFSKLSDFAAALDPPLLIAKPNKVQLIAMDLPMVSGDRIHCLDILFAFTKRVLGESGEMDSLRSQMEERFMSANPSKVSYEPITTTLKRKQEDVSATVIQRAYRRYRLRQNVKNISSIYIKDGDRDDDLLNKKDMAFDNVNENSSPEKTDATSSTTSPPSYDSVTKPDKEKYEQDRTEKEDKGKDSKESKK
Sequence (Q07699 whole entry partner, looked up): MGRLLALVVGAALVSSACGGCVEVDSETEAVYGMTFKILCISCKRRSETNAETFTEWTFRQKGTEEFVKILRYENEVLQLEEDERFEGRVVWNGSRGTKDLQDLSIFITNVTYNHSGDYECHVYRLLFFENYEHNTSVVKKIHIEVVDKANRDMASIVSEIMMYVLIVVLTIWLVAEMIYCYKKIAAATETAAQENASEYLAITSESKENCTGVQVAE
Test: Tritiated compound binding to membranes from cells expressing hNav1.7 and the β1 subunit (Nav1.7 LBA EVO)
Conditions: competitive binding vs [3H]compound, membranes with hNav1.7 and β1 subunit
Method: Example 64a. Tritiated Compound Binding to Membranes Isolated from Cells that Heterologously Express hNav1.7 and the β1 Subunit Preparation of membranes containing recombinantly expressed sodium channels: Frozen recombinant cell pellets are thawed on ice and diluted to 4 times the cell pellet weight with ice cold 50 mM Tris HCl, pH 7.4 buffer. […] Protein concentrations arer determined by Bradford Assay and the membranes are stored at −80° C. […]
Structures can show the parent of a compound that is named as a salt.
Listed next: entries and their corresponding pIC50.
In textbook form, pIC50 equals minus log to base ten of the concentration in mol/L.

                                   compound  value_measured
0  O=S(=O)(Nc1ccncn1)c1ccc(N[C@H]2CC[C@H](c3cccc(C(F)(F)F)c3)C[C@@H]2N2CCCC2)nc1 [Example 16, formate]            7.60
1  O=S(=O)(Nc1ccncn1)c1cnc(O[C@H]2CC[C@H](c3cccc(C(F)(F)F)c3)C[C@@H]2N2CCCCC2)c(Cl)c1            9.31

Name the reported pIC50 value associated with the compound O=S(=O)(Nc1ccncn1)c1ccc(O[C@H]2CC[C@H](c3cccc(OC(F)(F)F)c3)C[C@@H]2N2CCCC2)nc1
7.17

# input compound: Cc1nc(O[C@H]2CC[C@H](c3cccc(OC(F)F)c3)C[C@@H]2N(C)C)ccc1S(=O)(=O)Nc1ccncn1 ; wanted: its pIC50
9.21

I'd like to know its pIC50. The compound in question is CCc1cc(S(=O)(=O)Nc2ccncn2)cnc1O[C@H]1CC[C@H](c2cccc(C(F)(F)F)c2)C[C@@H]1N(C)C [Example 24, formate]
7.18

Field request: pIC50 | item: CN(C)[C@H]1C[C@@H](c2cccc(OC(F)(F)F)c2)CC[C@@H]1Oc1ccc(S(=O)(=O)Nc2ccncn2)cn1 [Example 25, formate]
7.35

* * *

Target: hNav1.7 (Homo sapiens (Human))
Assay: Tritiated compound binding to membranes from cells expressing hNav1.7 and the β1 subunit (Nav1.7 LBA EVO)
Conditions: competitive binding vs [3H]compound, membranes with hNav1.7 and β1 subunit
Let's look at some compounds and their measured pIC50.
# log scale: pIC50 equals minus log10 of the concentration in mol/L

These solved cases illustrate the format of a correct answer.
In [3]: df
Out[3]:
                         compound_structure  value_measured
0  O=S(=O)(Nc1ccncn1)c1cnc(O[C@H]2CC[C@H](c3cccc(C(F)(F)F)n3)C[C@@H]2N2CCCC2)c(Cl)c1            9.02
1  CN(C)[C@H]1C[C@@H](c2cccc(C(F)(F)F)c2)CC[C@@H]1Oc1ccc(S(=O)(=O)Nc2ccncn2)cn1            7.55
2  Cc1nc(O[C@H]2CC[C@H](c3cc(Cl)cc(C(F)(F)F)c3)C[C@@H]2N(C)C)ccc1S(=O)(=O)Nc1ccncn1            8.92
3  O=S(=O)(Nc1ccncn1)c1ccc(O[C@H]2CC[C@H](c3cccc(C(F)(F)F)c3)C[C@@H]2N2CCCCC2)nc1            8.31
4  CCN(C)[C@H]1C[C@@H](c2cccc(C(F)(F)F)c2)CC[C@@H]1Oc1ccc(S(=O)(=O)Nc2ccncn2)c(C)n1            9.12

What value of pIC50 has been recorded for this entry: Cc1nc(O[C@H]2CC[C@H](c3ccc(Cl)c(Cl)c3)C[C@@H]2N(C)C)ccc1S(=O)(=O)Nc1ccncn1
8.86

Quick check: pIC50 of Cc1nc(O[C@H]2CC[C@H](c3cccc(C(F)(F)F)c3C)C[C@@H]2N(C)C)ccc1S(=O)(=O)Nc1ccncn1 ?
8.45
